Target System: sGC enzyme (Homo sapiens, UniProt Q02108+Q02153)
Construct: incorporated into these cells detect cGMP formed by the compounds stimulating the sGC enzyme; host or cells: HEK293 cells stably expressing GloSensor 40F cGMP biosensor
Sequence (Q02153 whole entry): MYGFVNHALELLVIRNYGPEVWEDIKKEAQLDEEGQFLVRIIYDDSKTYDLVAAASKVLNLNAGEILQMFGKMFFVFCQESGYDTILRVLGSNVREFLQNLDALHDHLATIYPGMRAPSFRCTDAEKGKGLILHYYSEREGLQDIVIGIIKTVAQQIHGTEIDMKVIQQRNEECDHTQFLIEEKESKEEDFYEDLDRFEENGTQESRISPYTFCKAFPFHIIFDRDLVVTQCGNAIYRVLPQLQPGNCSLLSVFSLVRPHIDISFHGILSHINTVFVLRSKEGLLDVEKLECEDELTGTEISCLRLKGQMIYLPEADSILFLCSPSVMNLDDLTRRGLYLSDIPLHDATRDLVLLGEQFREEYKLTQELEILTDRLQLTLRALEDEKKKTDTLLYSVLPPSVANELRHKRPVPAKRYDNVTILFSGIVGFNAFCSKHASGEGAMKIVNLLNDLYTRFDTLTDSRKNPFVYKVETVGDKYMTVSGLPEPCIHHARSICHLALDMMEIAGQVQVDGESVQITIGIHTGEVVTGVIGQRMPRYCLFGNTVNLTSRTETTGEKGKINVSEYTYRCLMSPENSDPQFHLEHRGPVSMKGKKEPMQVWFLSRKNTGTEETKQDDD
Sequence (Q02108 whole entry): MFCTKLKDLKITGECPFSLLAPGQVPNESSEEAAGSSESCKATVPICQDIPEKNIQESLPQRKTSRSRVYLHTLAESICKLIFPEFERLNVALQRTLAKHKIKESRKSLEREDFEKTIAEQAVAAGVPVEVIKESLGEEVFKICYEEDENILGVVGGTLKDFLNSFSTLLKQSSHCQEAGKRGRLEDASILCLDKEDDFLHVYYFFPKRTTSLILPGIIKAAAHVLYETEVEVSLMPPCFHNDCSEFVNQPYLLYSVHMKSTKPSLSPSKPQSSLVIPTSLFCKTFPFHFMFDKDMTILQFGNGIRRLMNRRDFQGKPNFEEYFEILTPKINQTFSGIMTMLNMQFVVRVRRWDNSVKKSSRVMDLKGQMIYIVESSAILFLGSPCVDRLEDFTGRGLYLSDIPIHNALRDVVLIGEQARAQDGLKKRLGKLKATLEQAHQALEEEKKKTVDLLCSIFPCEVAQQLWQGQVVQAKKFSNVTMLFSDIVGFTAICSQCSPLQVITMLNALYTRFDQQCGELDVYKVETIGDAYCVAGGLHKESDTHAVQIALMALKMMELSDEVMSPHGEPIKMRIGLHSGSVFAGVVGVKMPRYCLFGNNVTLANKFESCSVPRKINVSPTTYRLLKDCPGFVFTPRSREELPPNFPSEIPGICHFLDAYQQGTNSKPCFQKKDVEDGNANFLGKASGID
Experiment: cGMP GloSensor cell-based assay, 384-well format
Study Conditions: HEK293 cells expressing GloSensor 40F cGMP; 10 μM DETA-NONOate; normalized to 30 μM Compound Y; compounds in Table IA; read-out: Glo-sensor AbsEC50
pEC50: −log10 of the molar value.
Measured pEC50 values are reported for all entries that follow.

{"Molecule": "CC(=O)NCc1n[nH]c(-c2nn(Cc3ccccc3F)c3ncccc23)n1", "pEC50": "6.00 to 7.00"}

Query :: I have this compound here, OC1(c2n[nH]c(-c3nn(Cc4ccccc4F)c4ncccc34)n2)CC1 , and I need its recorded pEC50.
Result :: > 7.00

Query :: I have this compound here, Nc1n[nH]c(-c2nn(Cc3ccccc3F)c3ncccc23)n1 , and I need its recorded pEC50.
Result :: 6.00 to 7.00

Query :: I have this compound here, NCc1n[nH]c(-c2nn(Cc3ccccc3F)c3ncccc23)n1 , and I need its recorded pEC50.
Result :: 6.00 to 7.00

Query :: I have this compound here, Fc1ccccc1Cn1nc(-c2nc(-c3ccccc3)n[nH]2)c2cccnc21 , and I need its recorded pEC50.
Result :: < 6.00

Query :: I have this compound here, Fc1ccccc1Cn1nc(-c2nc(NCCC(F)(F)F)n[nH]2)c2cccnc21 , and I need its recorded pEC50.
Result :: > 7.00

Query :: I have this compound here, [2H]C([2H])([2H])c1n[nH]c(-c2nn(Cc3ccccc3F)c3ncccc23)n1 , and I need its recorded pEC50.
Result :: > 7.00

----------
Target System: sGC enzyme (Homo sapiens, UniProt Q02108+Q02153)
Construct: incorporated into these cells detect cGMP formed by the compounds stimulating the sGC enzyme; host or cells: HEK293 cells stably expressing GloSensor 40F cGMP biosensor
Experiment: cGMP GloSensor cell-based assay, 384-well format
Study Conditions: HEK293 cells expressing GloSensor 40F cGMP; 10 μM DETA-NONOate; normalized to 30 μM Compound Y; compounds in Table IA; read-out: Glo-sensor AbsEC50
pEC50: −log10 of the molar value.
Measured pEC50 values are reported for all entries that follow.

Some entries whose results are on file:
{"Molecule": "FC(F)(F)c1n[nH]c(-c2nn(CC(F)(F)C(F)(F)F)c3ncccc23)n1", "Attribute Measured": "pEC50", "Test Result": "< 6.00"}
{"Molecule": "Fc1ccccc1Cn1nc(-c2nc(C(F)(F)F)n[nH]2)c2ncccc21", "Attribute Measured": "pEC50", "Test Result": "< 6.00"}

We now examine a further compound.
Query :: I have this compound here, Cc1ncc(Cn2nc(-c3nc(C(F)(F)F)n[nH]3)c3ccc(F)cc32)cn1 , and I need its recorded pEC50.
Result :: > 7.00
